# experimental system: tetrameric transthyretin (TTR) (UniProt P02766 21-147)
# protocol summary: SPR; OpenSPR (Nicoya), TTR immobilised on a COOH chip by amine coupling; Aβ peptides injected (Aβ C-terminals 2.4-48 µM; Aβ (1–40/42) 0.2-20 µM); PBS pH 6.8 with 0.005% Tween 20; 150 s association, 400 s dissociation; 1:1 interaction model
# test context: both partners purified
Square brackets hold non-standard residues; d marks the D form. Ends that are not written are not given here.
kon values for the binders below.

{"binder": "LVFFAE[dD]VG[dS]NKGAIIGLMV (amyloid beta residues 17-36 with D-isomerized Asp and Ser; also called co-isomerized Aβ (17–36); source: bought: Sangon Biotech Co., Ltd. (Shanghai, China)) [dDdS Aβ (17–36)]", "kon, M⁻¹ s⁻¹": 1930}
{"binder": "LVFFAE[dD]VGSNKGAIIGLMV (amyloid beta residues 17-36 with D-isomerized Asp; also called single D-isomerized Aβ (17–36); source: bought: Sangon Biotech Co., Ltd. (Shanghai, China)) [dD Aβ (17–36)]", "kon, M⁻¹ s⁻¹": 990}
{"binder": "LVFFAEDVGSNKGAIIGLMV (amyloid beta residues 17-36, all L; also called Aβ C-terminal fragment; source: bought: Sangon Biotech Co., Ltd. (Shanghai, China)) [WT Aβ (17–36)]", "kon, M⁻¹ s⁻¹": 690}
{"binder": "LVFFAEDVG[dS]NKGAIIGLMV (amyloid beta residues 17-36 with D-isomerized Ser; also called single D-isomerized Aβ (17–36); source: bought: Sangon Biotech Co., Ltd. (Shanghai, China)) [dS Aβ (17–36)]", "kon, M⁻¹ s⁻¹": 1160}
